assay_system: UniProtKB O75116
Sequence (O75116 whole entry, looked up): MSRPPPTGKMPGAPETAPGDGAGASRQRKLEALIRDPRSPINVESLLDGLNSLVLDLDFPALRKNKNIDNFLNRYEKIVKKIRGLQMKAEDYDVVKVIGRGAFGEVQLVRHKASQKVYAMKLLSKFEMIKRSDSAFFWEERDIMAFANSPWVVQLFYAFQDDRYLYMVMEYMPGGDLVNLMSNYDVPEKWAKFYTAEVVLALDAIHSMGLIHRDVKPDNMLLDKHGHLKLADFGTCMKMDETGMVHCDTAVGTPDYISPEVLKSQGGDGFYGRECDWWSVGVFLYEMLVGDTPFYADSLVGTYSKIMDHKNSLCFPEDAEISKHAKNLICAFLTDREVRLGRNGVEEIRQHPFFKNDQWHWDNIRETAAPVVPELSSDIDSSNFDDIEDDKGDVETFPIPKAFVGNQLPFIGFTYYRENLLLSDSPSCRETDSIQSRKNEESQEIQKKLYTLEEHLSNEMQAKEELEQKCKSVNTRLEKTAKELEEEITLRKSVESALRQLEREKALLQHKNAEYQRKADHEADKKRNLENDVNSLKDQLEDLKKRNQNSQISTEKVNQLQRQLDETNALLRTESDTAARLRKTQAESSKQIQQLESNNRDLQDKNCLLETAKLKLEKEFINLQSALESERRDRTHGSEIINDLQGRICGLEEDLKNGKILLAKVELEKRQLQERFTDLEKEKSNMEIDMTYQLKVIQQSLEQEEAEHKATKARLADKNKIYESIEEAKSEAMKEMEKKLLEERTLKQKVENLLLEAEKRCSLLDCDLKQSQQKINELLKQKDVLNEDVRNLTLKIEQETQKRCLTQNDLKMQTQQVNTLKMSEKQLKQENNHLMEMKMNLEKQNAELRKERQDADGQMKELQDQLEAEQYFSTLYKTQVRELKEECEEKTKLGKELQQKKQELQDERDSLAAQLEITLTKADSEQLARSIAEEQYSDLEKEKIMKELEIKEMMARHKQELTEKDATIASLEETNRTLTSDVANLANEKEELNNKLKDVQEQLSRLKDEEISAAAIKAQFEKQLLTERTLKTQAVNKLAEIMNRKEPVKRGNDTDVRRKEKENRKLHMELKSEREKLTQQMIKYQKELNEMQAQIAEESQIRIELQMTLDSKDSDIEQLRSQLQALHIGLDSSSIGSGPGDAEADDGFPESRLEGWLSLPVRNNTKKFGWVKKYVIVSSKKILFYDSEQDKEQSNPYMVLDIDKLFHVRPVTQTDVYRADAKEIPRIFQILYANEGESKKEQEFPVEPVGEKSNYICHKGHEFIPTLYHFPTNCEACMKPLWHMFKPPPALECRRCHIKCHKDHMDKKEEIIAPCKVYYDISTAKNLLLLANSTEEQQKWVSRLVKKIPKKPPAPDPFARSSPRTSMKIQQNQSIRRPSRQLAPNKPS
protocol_notes: Assessment of ROCK2 Kinase Activity using Luciferin-Luciferase Assay
test_readout: IC50 (µM)

{"smiles_repr": "CN1CCc2nc(NC(=O)c3cccc(OCC(=O)Nc4ccc(C#N)cc4)c3)sc2C1", "IC50 [µM]": 0.0234}
{"smiles_repr": "COc1ccc(C(=O)N2CCC[C@@H]2c2cccc(C(=O)Nc3nc4c(s3)CN(C)CC4)c2)cc1OC", "IC50 [µM]": 0.0307}
{"smiles_repr": "CN1CCc2nc(NC(=O)c3cccc([C@H]4CCCN4C(=O)c4ccc(-c5cnco5)cc4)c3)sc2C1", "IC50 [µM]": 0.0026}
{"smiles_repr": "CN1CCc2nc(NC(=O)c3cccc([C@H]4CCCN4C(=O)c4ccc5cc(O)ccc5c4)c3)sc2C1", "IC50 [µM]": 0.0021}
{"smiles_repr": "N#CCCN[C@H]1CCc2nc(NC(=O)c3cccc(OCC(=O)Nc4ccc(C#N)cc4)c3)sc2C1", "IC50 [µM]": 0.0052}

(P) CN1CCc2nc(NC(=O)c3cccc([C@H]4CCCN4C(=O)c4csc(-c5cccnc5)n4)c3)sc2C1
(Q) CN1CCc2nc(NC(=O)c3cccc([C@H]4CCCN4C(=O)Nc4cccc(C(N)=O)c4)c3)sc2C1
(R) COc1ccc(C(=O)N2CCC[C@@H]2c2cccc(C(=O)Nc3nc4c(s3)CN(C)CC4)c2)cc1C
Put the items in order so that reported IC50 rises from first to last. Put the labels in the requested order and write them down.
P, R, Q
(P: 0.004 µM, R: 0.0451 µM, Q: 0.0946 µM)
